- Assay Overview: qHTS for Inhibitors of the Functional Ribonucleoprotein Complex (vRNP) of Lassa (LASV) Arenavirus: Viability assay - alamar blue signal for LASV Primary Screen (AID 1347083); also: nearly all actives have a fitted effect of over 80% in size; also: potency is read from the fitted curve at half-maximal effect
- Reported Conditions: cell viability, alamar blue fluorescence (LASV minigenome counter-screen); series mostly up to 57.5 µM
Results filed as inconclusive are left out. The source made the active and inactive calls. Calls follow the shape of the full dose curve; tested in HEK293 reporter line.
Experimental Endpoint: Potency

O=C(c1cc(O)c(O)c([N+](=O)[O-])c1)c1ccccc1F    inactive
CCCn1c(=O)c2[nH]c(C3CCCC3)nc2n(CCC)c1=O    inactive
COc1c2n(C)ccc3c-2n(c(=O)c1=O)c1ccccc31    inactive
CCCn1c(=O)c2[nH]c(-c3ccc(S(=O)(=O)O)cc3)nc2n(CCC)c1=O    inactive
COc1cc2c(O)c3c(c(-c4ccc5c(c4)OCO5)c2cc1OC)C(=O)OC3    inactive

query: // returns reported Potency for input `COC(=O)N1c2ccccc2C23[C@@H]4CN5CCC[C@]6(CCC12C(O)(C6)C4=O)[C@H]53`
result: inactive

query: // query Potency value for entry `Cn1ccnc1`
result: inactive

query: // query Potency value for entry `CCC[C@H](Nc1nc(-c2ccc(NC(=O)NCC)c(OC)c2)ncc1C)c1cccnc1`
result: 0.0385 µM (active)

query: Sample `CNc1nc(-c2ccc3c(N)n[nH]c3c2)cc(N2C[C@@H](C(=O)NC3CCCCC3)CC[C@@H]2C)n1` — what was its Potency?
result: 24.3 µM (active)

query: I would be grateful if you could share the reported Potency for `c1ccc(CN2CCC3(CCCc4ccccc43)CC2)cc1` .
result: inactive

----------
- Assay Overview: qHTS for Inhibitors of the Functional Ribonucleoprotein Complex (vRNP) of Lassa (LASV) Arenavirus: LASV Primary Screen - GLuc reporter signal (AID 1347082); also: nearly all actives have a fitted effect of over 60% in size; also: potency is read from the fitted curve at half-maximal effect
- Reported Conditions: LASV minigenome vRNP, Gaussia luciferase reporter; series mostly up to 57.5 µM
Records with an inconclusive call do not appear. Activity calls are given as the source filed them. Calls come from the whole dose curve; tested in HEK293 reporter line.
Experimental Endpoint: Potency

Recorded results for 4 compounds are shown here.
C[C@@H]1OC(O[C@H]2[C@H](Oc3cc(O)c4c(=O)c(O)c(-c5ccc(O)cc5)oc4c3)O[C@H](CO)[C@@H](O)[C@@H]2O)[C@H](O)[C@H](O)[C@H]1O (stereo not given in full)    inactive
C#C[C@]1(O)CC[C@@H]2[C@@H]3CCC4=CC(=O)CC[C@@H]4[C@H]3CC[C@@]21CC    inactive
O=C(CCCCCCC(=O)Nc1cccnc1)NO    inactive
COc1cc(/C=C/C(=O)OC[C@H]2O[C@H](OC3(CO)OC(CO)C(O)C3O)[C@H](O)[C@@H](O)[C@@H]2O)ccc1O (stereo not given in full)    inactive

query: What measured Potency goes with `COc1ccc(-c2cc(=O)c3c(O)cc(O)cc3o2)cc1O` ?
result: 24.3 µM (active)

----------
- Assay Overview: qHTS for Inhibitors of the Functional Ribonucleoprotein Complex (vRNP) of Lymphocytic Choriomeningitis Arenaviruses (LCMV): Viability assay - alamar blue signal for LCMV Primary Screen (AID 1347085); also: % is scaled to controls: 0 for no effect and ±100 for the full control effect; nearly all actives have a fitted effect of over 80% in size
- Reported Conditions: alamar blue viability counter-screen, LCMV vRNP screen cells; series mostly up to 57.5 µM
Records with an inconclusive call do not appear. The source made the active and inactive calls. Calls follow the shape of the full dose curve; tested in HEK293 reporter line.
Experimental Endpoint: outcome

Illustrative cases are given below, each with its answer.
C=CC[C@H](N)C(=O)O    inactive
CCOC(=O)[C@H](CCc1ccccc1)N[C@@H](C)C(=O)N1CCCC1C(=O)O (stereo partly specified)    inactive
O=c1c2ccccc2oc2ccccc12    inactive
COc1ccc(C(C)=O)cc1    inactive
CC(=O)NCCc1c[nH]c2ccc(O)cc12    inactive
O=C(O)CCC(=O)N1CCCC1C(=O)O (stereo unspecified)    inactive

query: Would you mind telling me what outcome value was observed for C[N+]1([O-])[C@@H]2Cc3cc4c(cc3[C@@H]1Cc1cc3c(cc12)OCO3)OCO4 (stereo partly specified) ?
result: inactive

query: State the recorded outcome for this entry: `NC(=O)c1ncn([C@@H]2O[C@H](CO)[C@@H](O)[C@H]2O)n1`
result: inactive

----------
- System: Tov-21-G
- Assay Overview: Primary qHTS to identify gynecologic anti-cancer compounds using libraries of approved drugs and bioactive compounds (AID 1345084); also: nearly all actives have a fitted effect of over 55% in size
- Reported Conditions: Gynecologic cancer cell panel viability, ATPlite luminescence, 48 h; series mostly up to 57.5 µM
Inconclusive results are not listed. The source made the active and inactive calls. The call rests on the fitted dose curve; in most records, active means well fitted cell-killing curve with a large enough effect; inconclusive means small, poorly fitted or top-dose-only effect, or effect the other way; inactive means flat fitted curve, though single readings scatter.
Returns: one label drawn from Yes = active, No = inactive

Before answering, review these 3 worked examples.
C[C@@H]1Cc2c(Cl)cc(C(=O)N[C@@H](Cc3ccccc3)C(=O)O)c(O)c2C(=O)O1    No
CCCCOC(=O)c1ccnc2cc(C(OCCN3CCCCC3)c3ccccc3Cl)sc12 (centres undefined)    No
COC(=O)C1=COC(C)C2CN3CCC4(C(=O)Nc5ccccc54)C3CC12 (centres undefined)    No

Next, consider the following compound.
query: Check the results log: what was the call for C[C@@H]1O[C@@H](OC2CCC3(C=O)C(CCC4C3CCC3(C)C(C5=CC(=O)OC5)C(O)CC43O)C2)[C@H](O)[C@H](O)[C@H]1O[C@@H]1O[C@H](CO)[C@@H](O)[C@H](O)[C@H]1O (some centres undefined) ?
result: Yes

----------
- Assay Overview: qHTS for Inhibitors of the Functional Ribonucleoprotein Complex (vRNP) of Lymphocytic Choriomeningitis Arenaviruses (LCMV): Viability assay - alamar blue signal for LCMV Primary Screen (AID 1347085); also: % is scaled to controls: 0 for no effect and ±100 for the full control effect; nearly all actives have a fitted effect of over 80% in size
- Reported Conditions: alamar blue viability counter-screen, LCMV vRNP screen cells; series mostly up to 57.5 µM
Records with an inconclusive call do not appear. Activity calls are given as the source filed them. Calls follow the shape of the full dose curve; tested in HEK293 reporter line.
Experimental Endpoint: activity change, negative = lower viability

CCCCC[C@H](O)/C=C/C=C\C/C=C\C=C\[C@@H](O)CCCC(=O)O    2.14% [at 0.757 µM] (inactive)

query: Sample `C[C@@H](O)CCC[C@H](O)/C=C/[C@H]1[C@H](O)CC(=O)[C@@H]1C/C=C\CCCC(=O)O` — what was its activity change, negative = lower viability?
result: -144% [at 5.82 µM] (inactive)

query: # get_value(readout='activity change, negative = lower viability', item= `CC/C=C\C[C@H](O)/C=C/C=C\C/C=C\C/C=C\CCCC(=O)O` )
result: 7.46% [at 0.757 µM] (inactive)

query: # query: activity change, negative = lower viability of entry COc1ccc(CC2c3cc(OC)c(OC)cc3CC[N+]2(C)CCC(=O)OCCCCCOC(=O)CC[N+]2(C)CCc3cc(OC)c(OC)cc3C2Cc2ccc(OC)c(OC)c2)cc1OC (stereo unspecified)
result: 2.32% [at 11.5 µM] (inactive)

query: Can you look up the measured activity change, negative = lower viability of CCCCC[C@H](O)/C=C/[C@H]1OC(O)C[C@H](O)[C@@H]1C/C=C\CC(=O)O (stereo partly specified) for me?
result: -0.195% [at 0.757 µM] (inactive)

query: Param item = `CCCCC[C@H](O)/C=C/[C@H]1OC(=O)C[C@H](O)[C@@H]1C/C=C\CCCC(=O)O` ; retrieve measured activity change, negative = lower viability.
result: 3.55% [at 5.82 µM] (inactive)

----------
- Assay Overview: qHTS for ATAD5 Antagonist screened against the NCATS CANVASS Library (AID 1347370); also: nearly all actives have a fitted effect of over 65% in size
- Reported Conditions: HEK293T-ATAD5-luc, 5-FUrd stimulated, luminescence, 16 h; series mostly up to 46.1 µM
Records with an inconclusive call do not appear. Calls of active or inactive are those of the source. Calls follow the shape of the dose curve; as a rule, active = well fitted inhibition curve with a large enough effect; inconclusive = small, poorly fitted or top-dose-only effect; inactive = no such curve, though single readings can be large or run the other way.
Select the correct class. Options are 1 (yes) (active), 0 (no) (inactive) and nothing else.

CCCC[C@@H]1CC[C@H]2CCCC(CCC)N12 (stereo partly drawn)    0 (no)
CC1=CC(=O)C2=C(C)C[C@H](O)[C@@H]3[C@H](OC(=O)[C@@H]3C)[C@@H]12    0 (no)
CO[C@@H](/C=C/CC/C=C/C(=O)O)[C@@H](O)[C@H](C)/C=C(\C)[C@@H](O)[C@H](C)C(=O)CCCC1CC(=O)NC(=O)C1    0 (no)
NCCc1ccccc1    0 (no)
COc1ccc(C23Oc4cc(OC)cc(OC)c4[C@](O)([C@H](c4ccccc4)C2C(=O)NCCCCNC(=O)c2ccccc2)[C@@H]3O)cc1 (stereo partly drawn)    0 (no)
C=C1[C@@H](C)[C@H]2[C@H](Cc3ccccc3)NC(=O)[C@]23OC(=O)/C=C/[C@H](O)CCC[C@@H](C)C/C=C/[C@H]3[C@@H]1O    0 (no)

query: What was the test verdict on CC[N@@+]1([O-])C[C@]2(C)CC[C@@H](O)[C@@]34C5C[C@H]6CC[C@@]5(C(C[C@H]23)C41)[C@H](O)[C@@]6(O)CO (stereo partly drawn) ?
result: 0 (no)

query: Please share the test call associated with `COc1ccc2c3c([nH]c2c1)C(C)=NCC3` .
result: 1 (yes)
